meta.source: patent US10934263B2

- protocol-notes: PAMPA membrane permeability assay
- Format: in vitro ADME
- condition-details: PAMPA permeability coefficient, GIT lipid, buffer pH 7.4, 4 hours incubation
readout-name: PAMPA (10^−6 cm/s)

CCNC(=O)Cn1cc[n+](CC(=O)Nc2c(C)cccc2C)c1 | + (<0.1 10^−6 cm/s)
Cc1cccc(C)c1NC(=O)C[n+]1cccn1C1CC1 | + (<0.1 10^−6 cm/s)
Cc1cccc(C)c1NC(=O)C[n+]1ccc(-c2ccccc2)cc1.[Br-] [Compound 14A] | + (<0.1 10^−6 cm/s)
Cc1cccc(C)c1NC(=O)C[n+]1cccc(-c2ccccc2)c1.[Br-] [Compound 12A] | + (<0.1 10^−6 cm/s)
CCOC(=O)Cn1ccc(C)[n+]1CC(=O)Nc1c(C)cccc1C | + (<0.1 10^−6 cm/s)
Cc1cccc(C)c1NC(=O)C[n+]1cccc(N2CCCC2)c1 | ++ (0.1-2.0 10^−6 cm/s)
CCn1ccc(C)[n+]1CC(=O)Nc1c(C)cccc1C | + (<0.1 10^−6 cm/s)
Cc1cccc(C)c1NC(=O)C[n+]1cccc(Cc2ccccc2)c1 | ++ (0.1-2.0 10^−6 cm/s)

Asked: # PAMPA (10^−6 cm/s) lookup, item Cc1cccc(C)c1NC(=O)Cn1cc[n+](CC(=O)Nc2c(C)cccc2C)c1
Given back: ++ (0.1-2.0 10^−6 cm/s)
